- System: Klebsiella pneumoniae
- ASSAY_OVERVIEW: Antibacterial activity against carbapenemase/Klebsiella pneumoniae CECT-997 by broth microdilution method
- Assay type: functional
The source made the active and inactive calls. The rule behind the calls is not given here.
READOUT_NAME: MIC

Here's what some known entries look like.
>  <COMPOUND>
O=C(Nc1ccc([N+](=O)[O-])cc1Cl)c1cc(Cl)ccc1O [NICLOSAMIDE]

>  <READOUT_NAME>
MIC

>  <REPORTED_VALUE>
inactive

$$$$
>  <COMPOUND>
NCCOCCOc1ccc(Cl)cc1C(=O)Nc1ccc([N+](=O)[O-])cc1Cl

>  <READOUT_NAME>
MIC

>  <REPORTED_VALUE>
inactive

$$$$
>  <COMPOUND>
CC[C@H](N)COc1ccc(Cl)cc1C(=O)Nc1ccc([N+](=O)[O-])cc1Cl

>  <READOUT_NAME>
MIC

>  <REPORTED_VALUE>
inactive

$$$$
>  <COMPOUND>
NCCCCOc1ccc(Cl)cc1C(=O)Nc1ccc([N+](=O)[O-])cc1Cl

>  <READOUT_NAME>
MIC

>  <REPORTED_VALUE>
15 µg/mL

$$$$

Switching to the query record.
Summary for this compound, NCCCCCOc1ccc(Cl)cc1C(=O)Nc1ccc([N+](=O)[O-])cc1Cl : MIC is inactive
